Target or system Cannabinoid receptor 1 (Rattus norvegicus): recorded pKi listed per item.
Answers are plain numbers, as −log10 of the molar value.

Some compounds with recorded pKi:
Compound	pKi
CCCCCc1cc(O)c(C2CC(C)CC[C@H]2C(C)C)c(O)c1 (stereo not given in full)	6.84
CCCCCCC(C)(C)c1cc(O)c(C2CC(C)CC[C@H]2C(C)C)c(O)c1 (stereo not given in full)	7.77

Record CCCCCCC(C)(C)c1cc(O)c(C2C=C(C)CC[C@H]2C(C)C)c(O)c1 (stereo not given in full) , field pKi: 6.91
